# Study system: human muscarinic M3 receptor (Homo sapiens)
# Sequence (P20309 whole entry): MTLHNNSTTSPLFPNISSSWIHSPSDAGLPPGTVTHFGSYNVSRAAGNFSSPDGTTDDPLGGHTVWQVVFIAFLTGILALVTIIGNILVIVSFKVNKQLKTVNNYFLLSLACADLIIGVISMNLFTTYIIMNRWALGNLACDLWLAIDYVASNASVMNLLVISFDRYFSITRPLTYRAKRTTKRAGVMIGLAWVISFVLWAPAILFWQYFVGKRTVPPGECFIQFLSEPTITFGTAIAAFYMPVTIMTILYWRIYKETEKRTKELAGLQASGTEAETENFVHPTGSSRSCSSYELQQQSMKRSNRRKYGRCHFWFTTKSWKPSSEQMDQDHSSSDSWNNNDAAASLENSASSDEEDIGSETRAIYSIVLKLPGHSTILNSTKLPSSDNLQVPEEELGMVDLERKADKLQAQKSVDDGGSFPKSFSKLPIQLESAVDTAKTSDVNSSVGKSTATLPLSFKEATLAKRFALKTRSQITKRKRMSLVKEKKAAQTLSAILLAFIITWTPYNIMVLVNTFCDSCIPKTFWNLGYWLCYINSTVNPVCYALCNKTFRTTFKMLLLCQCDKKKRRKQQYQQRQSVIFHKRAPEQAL
# Procedure details: Alphascreen Surefire phospho-ERK1/2 functional assay, M3
# Condition label: CHO cells stably expressing human M3; Emax relative to ACh
Readout name: M3 % Emax cf. ACh

                                   compound  result_value
0  CCOC(=O)N1CC2(CC(N3CCC4(CC3)OC(=O)NC4CC)C2)C1 (single isomer, unassigned) [2-1 Isomer 2]         (4) %
1  CCOC(=O)N1CC2(CC(N3CCC4(CC3)OC(=O)NC4CC)C2)C1 (single isomer, unassigned) [2-1 Isomer 1]         (9) %
2  CCOC(=O)N1CCC2(CC(N3CCC4(CC3)OC(=O)N(CC)C4CC)C2)C1 (single isomer, unassigned) [4-22 Isomer 4]         (2) %
3  CCOC(=O)N1CCC2(CC(N3CCC4(CC3)OC(=O)N(CC(C)C)C4(C)C)C2)C1 (single isomer, unassigned) [4-38 Isomer 1]         (3) %
4  CCOC(=O)N1CCC2(CC(N3CCC4(CC3)OC(=O)NC4CC)C2)C1 (single isomer, unassigned) [4-12 Isomer 3]         (8) %
5  CCOC(=O)N1CCC2(CC(N3CCC4(CC3)OC(=O)N(CC(C)C)C4(C)C)C2)C1 (single isomer, unassigned) [4-38 Isomer 2]         (1) %
6  CCCN1C(=O)OC2(CCN(C3CC4(CCN(C(=O)OCC)C4)C3)CC2)C1CC (single isomer, unassigned) [4-23 Isomer 4]         (3) %
7  CCOC(=O)N1CCC2(CC(N3CCC4(CC3)OC(=O)N3CCCC34)C2)C1 (single isomer, unassigned) [4-44 Isomer 3]         (3) %
